# target.under.test: purified human HDAC6 (Homo sapiens)
# Construct: purchased BPS Bioscience 5006
# Sequence (Q9UBN7 1-1215): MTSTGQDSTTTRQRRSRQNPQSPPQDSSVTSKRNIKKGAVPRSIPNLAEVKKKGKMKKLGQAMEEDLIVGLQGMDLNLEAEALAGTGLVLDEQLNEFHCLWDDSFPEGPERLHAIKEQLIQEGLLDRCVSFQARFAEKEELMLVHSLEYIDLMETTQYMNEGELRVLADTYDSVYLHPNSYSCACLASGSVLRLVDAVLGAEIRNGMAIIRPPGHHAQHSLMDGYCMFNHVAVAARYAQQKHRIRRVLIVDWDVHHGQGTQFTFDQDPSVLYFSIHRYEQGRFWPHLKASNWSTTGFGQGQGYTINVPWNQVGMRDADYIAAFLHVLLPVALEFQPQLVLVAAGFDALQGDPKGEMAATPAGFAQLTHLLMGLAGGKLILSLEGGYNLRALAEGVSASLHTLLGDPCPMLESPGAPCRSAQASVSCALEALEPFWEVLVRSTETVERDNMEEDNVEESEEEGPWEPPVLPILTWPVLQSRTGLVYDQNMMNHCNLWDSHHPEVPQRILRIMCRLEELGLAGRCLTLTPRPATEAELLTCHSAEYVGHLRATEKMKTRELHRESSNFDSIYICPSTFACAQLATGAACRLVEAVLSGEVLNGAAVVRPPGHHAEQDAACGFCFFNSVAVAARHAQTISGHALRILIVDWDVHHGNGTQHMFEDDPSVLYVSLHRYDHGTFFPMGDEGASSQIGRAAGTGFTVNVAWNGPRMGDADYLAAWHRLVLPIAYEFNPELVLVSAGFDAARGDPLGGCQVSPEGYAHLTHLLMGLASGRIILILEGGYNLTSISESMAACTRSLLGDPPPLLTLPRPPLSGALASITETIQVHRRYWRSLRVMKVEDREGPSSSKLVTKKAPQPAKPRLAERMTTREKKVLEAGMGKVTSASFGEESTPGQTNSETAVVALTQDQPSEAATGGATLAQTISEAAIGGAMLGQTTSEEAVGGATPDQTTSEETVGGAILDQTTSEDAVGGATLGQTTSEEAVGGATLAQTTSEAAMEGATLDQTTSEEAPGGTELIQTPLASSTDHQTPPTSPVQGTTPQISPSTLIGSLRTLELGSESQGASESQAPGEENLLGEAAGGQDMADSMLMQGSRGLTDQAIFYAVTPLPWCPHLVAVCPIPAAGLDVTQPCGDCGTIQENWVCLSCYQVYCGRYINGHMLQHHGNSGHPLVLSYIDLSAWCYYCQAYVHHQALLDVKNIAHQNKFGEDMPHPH
# method.notes: HDAC6 Enzyme Assay
# Assay type: biochemical
# run.parameters: HDAC6 inhibition at a compound concentration of 0.412 μM; read-out: Percent Inhibition at 0.412 μM
readout.name: inhibition at 0.412 µM (%)
Write the number in % without appending the unit.

Consider the worked cases shown below.
COc1cccc2c1CC(C(=O)NO)CC2 (stereo not drawn) = 25
O=C(NO)C1CCc2ccc(-c3cccc(NC(=O)C4CC4)c3)cc2C1 (stereo not drawn) = 90
O=C(NO)C1CCc2ccc(Oc3ccc(NC(=O)C4CC4)cc3)cc2C1 (stereo not drawn) = 82

Value lookup for inhibition at 0.412 µM; key = CN(C)CCOc1ccc2c(c1)CC(C(=O)NO)CC2 (stereo not drawn) 34

// repeat for NC(=O)c1ccc2c(c1)CC(C(=O)NO)CC2 (stereo not drawn) and report 76

Check COc1ccc(-c2ccc3c(c2)CC(C(=O)NO)CC3)cc1OC (stereo not drawn) too. 82

How about this compound: O=C(NO)C1CCc2ccc(Nc3ccncc3)cc2C1 (stereo not drawn) 57

For COc1ccc(-c2ccc3c(c2)CC(C(=O)NO)CC3)c(C)c1 (stereo not drawn) then? 78

Also check CC(C)Oc1ncccc1-c1ccc2c(c1)CC(C(=O)NO)CC2 (stereo not drawn) 82
